The reported measurements were obtained from patent US8268869B2.

system: FGF receptor 1 (b-FGF induced pERK in HUVEC); test: AlphaScreen SureFire Detection of ERK phosphorylation (Thr202/Tyr204) in HUVEC; type: cell-based; conditions: Homo sapiens, b-FGF 50 ng/mL, 20 mg/mL BSA
property: IC50 (nM)
Number in nM, nothing else.

Exercise: Quick one: IC50 of C[C@@H](Oc1ccc2[nH]nc(/C=C/c3cnn(CCO)c3)c2c1)c1c(Cl)cncc1Cl [Example 1] ?
Solution: 0.6

* * *

Tested on: FGF9 induced ERK phosphorylation in Human RT112 bladder carcinoma cells
Assay: FGF9 induced p-ERK with BSA in RT112 cells
Type: cell-based
Conditions: RT-112, relative IC50, RT112 cells, 20 mg/mL BSA, 500 ng/mL FGF9
Experimental: Human RT112 bladder carcinoma cells are seeded at a density of 5,000 cells per well in 100 μL RPMI 1640 (Gibco 11875-085) supplemented with 10% fetal bovine serum (FBS, Gibco 10082-147) and 1% of a penicillin/streptomycin solution (Gibco 15140-122) in CELLBIND® 96 well plates (Corning 3340) and incubated overnight at 37° C. The next morning the growth medium is removed and replaced with 100 μL RPMI 1640 supplemented with 20 mg/mL bovine serum albumin (BSA). […]
property: IC50

Exercise: Quick one: IC50 of C[C@@H](Oc1ccc2[nH]nc(/C=C/c3cnn(CCO)c3)c2c1)c1c(Cl)cncc1Cl [Example 1] ?
Solution: 0.4 nM
